# System under test: DLL3 endogenously expressed on NCI-H82 cells (UniProt Q9NYJ7)
# Sequence (Q9NYJ7 27-618): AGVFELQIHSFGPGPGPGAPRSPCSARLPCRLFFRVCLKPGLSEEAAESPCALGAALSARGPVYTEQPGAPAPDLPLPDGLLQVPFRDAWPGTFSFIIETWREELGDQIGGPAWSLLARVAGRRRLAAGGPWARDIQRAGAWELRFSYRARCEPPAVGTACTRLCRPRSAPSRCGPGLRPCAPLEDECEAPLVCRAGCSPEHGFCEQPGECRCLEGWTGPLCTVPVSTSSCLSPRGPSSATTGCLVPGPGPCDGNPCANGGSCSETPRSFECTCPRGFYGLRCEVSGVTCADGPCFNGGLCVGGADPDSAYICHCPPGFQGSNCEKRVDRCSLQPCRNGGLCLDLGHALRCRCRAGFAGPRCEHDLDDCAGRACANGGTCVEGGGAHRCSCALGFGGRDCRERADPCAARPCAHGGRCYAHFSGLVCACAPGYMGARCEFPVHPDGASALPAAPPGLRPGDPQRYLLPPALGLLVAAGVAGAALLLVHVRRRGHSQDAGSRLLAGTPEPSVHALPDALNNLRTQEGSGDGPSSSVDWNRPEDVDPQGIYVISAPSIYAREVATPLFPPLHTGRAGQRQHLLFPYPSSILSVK
# Assay explanation: FACS on NCI-H82 cells; antibody 0.8 nM
Readout: MFI
Answer with a bare number; do not write a unit.

Solved entries:
| Binder | MFI |
| --- | --- |
| Hab009VL2aVH1-hFc (Fc fusion, part only; not given: Linker and human IgG1 Fc, not shown: a dimerising Fc or GST) chain, part: DIVMTQSPLSLPVTPGEPASISCRASQTISDYLHWYLQKPGQSPRLLIKYASQSISGVPDRFSGSGSGTDFTLKISRVEAEDVGVYYCQQGHSFPLTFGQGTKLEIKEVQLVQSGAEVKKPGASVKVSCKASGYTFTSYWMHWVRQAPGQRLEWMGTIYPGNSDTRYNQKFKDRVTITADTSASTAYMELSSLRSEDTAVYYCTRSYDYGDLDYWGQGTTVTVSS | 709 |
| Hab015VL4VH5a-hFc (scFv, part only; not given: VL-VH linker and human IgG1 Fc, V domains shown, not shown: another chain or arm of the molecule; a dimerising Fc or GST; small tags and cut ends) VL: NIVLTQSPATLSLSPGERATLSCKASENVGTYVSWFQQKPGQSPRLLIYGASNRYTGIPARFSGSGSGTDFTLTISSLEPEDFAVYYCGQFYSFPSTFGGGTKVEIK VH: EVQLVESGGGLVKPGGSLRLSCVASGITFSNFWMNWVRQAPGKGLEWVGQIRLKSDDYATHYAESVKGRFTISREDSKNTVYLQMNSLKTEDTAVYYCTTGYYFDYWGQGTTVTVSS | 942 |
| Hab015VL4VH1b-hFc (scFv, part only; not given: VL-VH linker and human IgG1 Fc, V domains shown, not shown: another chain or arm of the molecule; a dimerising Fc or GST; small tags and cut ends) VL: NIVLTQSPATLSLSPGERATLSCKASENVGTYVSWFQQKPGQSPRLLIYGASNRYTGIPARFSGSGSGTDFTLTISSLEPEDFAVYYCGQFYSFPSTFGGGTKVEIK VH: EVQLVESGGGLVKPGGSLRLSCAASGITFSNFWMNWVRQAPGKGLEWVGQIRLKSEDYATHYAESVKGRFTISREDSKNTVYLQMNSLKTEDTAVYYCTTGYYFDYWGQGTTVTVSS | 914 |
| Hab015VL5VH1a-hFc (scFv, part only; not given: scFv linker and human IgG1 Fc, V domains shown, not shown: another chain or arm of the molecule; a dimerising Fc or GST; small tags and cut ends) VL: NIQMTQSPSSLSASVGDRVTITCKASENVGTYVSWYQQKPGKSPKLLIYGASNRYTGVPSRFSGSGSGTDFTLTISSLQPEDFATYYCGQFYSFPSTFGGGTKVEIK VH: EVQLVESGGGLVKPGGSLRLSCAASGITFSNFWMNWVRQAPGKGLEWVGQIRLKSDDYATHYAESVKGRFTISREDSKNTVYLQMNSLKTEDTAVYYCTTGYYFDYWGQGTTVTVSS | 811 |

MFI in this record for Hab015VL5VH6a-hFc (scFv, part only; not given: scFv linker and human IgG1 Fc, V domains shown, not shown: another chain or arm of the molecule; a dimerising Fc or GST; small tags and cut ends) VL: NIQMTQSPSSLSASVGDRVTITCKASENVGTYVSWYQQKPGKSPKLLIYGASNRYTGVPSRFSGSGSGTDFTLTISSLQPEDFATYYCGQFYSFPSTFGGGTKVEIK VH: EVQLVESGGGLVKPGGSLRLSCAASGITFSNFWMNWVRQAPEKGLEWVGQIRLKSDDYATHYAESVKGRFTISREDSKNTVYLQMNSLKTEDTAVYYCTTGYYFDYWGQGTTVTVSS : 755
